system: MDA-MB-435
endpoint_name: GI50

1) COc1ccc(-c2ccc3c(NC(=O)C4CC4)n[nH]c3n2)cc1 ... > 25 µM
2) COc1cc(-c2cc(-c3ccc(N(C)C)cc3)nc(N3CCOCC3)c2C#N)cc(OC)c1OC ... 0.843 µM
3) C=C(C=O)C1CC(=O)C(C(=O)OC)[C@@H]2O[C@@](C)(CC2=O)C[C@@H]2OC(=O)[C@]3(O[C@@H]23)[C@@H](C(=O)OC)C1 (stereo partly specified) ... 14.3 µM
4) COc1ccc(N2CCN(C(=O)c3ccccc3Nc3ccnc(C(F)(F)F)c3)CC2)cc1 ... 38 µM
5) O=C1c2[nH]cc(CN3CCNCC3)c2C(=O)c2c1c(O)c1ccccc1c2O ... 2.54 µM
6) CN(C)CCCNc1nn2c(=O)c3ccccc3nc2c2ccccc12 ... 6.24 µM

* * *

tested on: RPMI-8226 leukemia; test: NCI tumour cell line growth inhibition, 48 h
endpoint_name: TGI (µM)

1) COc1ccc(SC2c3cc(OC)c(OC)cc3Oc3nc(N)c(C#N)c(N)c32)cc1 (stereo not drawn) ... 1.81
2) COc1cccc(NC(=O)CSc2nnc(-c3ccc(N=Cc4ccc(Cl)cc4)cc3)o2)c1 ... 65.1
3) CCC1(CC)C(=O)CC[C@@]2(C)C1=CC[C@H]1[C@@H]3CC[C@H](O)[C@@]3(C)CC[C@@H]12 ... 32.4
4) CCCCC[C@@H]1OCO[C@@]2(C)/C=C(C)/C=C/C(=O)O[C@H]([C@@H](C)[C@@H](O)[C@H](C)[C@@]3(O)C[C@@H](O[C@H]4C[C@@H](O)[C@H](O)[C@@H](C)O4)[C@H](C)[C@@H](C)O3)[C@@H](OC)/C=C/C=C(\C)C[C@@H]1[C@@H]2O (stereo in doubt) ... 50

* * *

The following compounds are shown together with reported TGI values.
test system: DU-145 prostate; experiment: NCI tumour cell line growth inhibition, 48 h
endpoint_name: TGI (µM)

1) O=C(NCc1cccnc1)/C(=C\c1ccc(Br)cc1)S(=O)(=O)c1ccccc1 ... 1.53
2) CN(C)[C@@H]1C(=O)C(C(N)=O)=C(O)[C@@]2(O)C(=O)C3=C(O)c4c(O)cc(CN5CCc6ccccc6C5)c(Cl)c4C[C@H]3C[C@@H]12 ... 3.04
3) CN(C)CCCNc1nn2c(=O)c3ccccc3nc2c2ccccc12 ... 28.4
4) O=C(O)/C=C(/CC(=O)O)C(=O)O ... 45.7
5) NC(N)=N/N=C/c1c(-c2ccc([N+](=O)[O-])cc2)nc2sccn12 ... 3.21
6) COc1cc(C)c(C(=O)O[C@H]2[C@H](O[C@H]3[C@@H](O)COC(O[C@H]4C[C@H]5[C@@H]6CC=C7C[C@@H](O)CC[C@]7(C)[C@H]6CC[C@]5(C)[C@H]4[C@H](C)C(=O)CCC(C)C)[C@@H]3OC(C)=O)OC[C@@H](O)[C@@H]2O)c(C)c1 (some centres undefined) ... 21.9

* * *

tested on: HS 578T breast; experiment: NCI tumour cell line growth inhibition, 48 h
The following compounds are shown together with reported TGI values.
endpoint_name: TGI (µM)

1. COc1cc(C)c(C(=O)O[C@H]2[C@H](O[C@H]3[C@@H](O)COC(O[C@H]4C[C@H]5[C@@H]6CC=C7C[C@@H](O)CC[C@]7(C)[C@H]6CC[C@]5(C)[C@H]4[C@H](C)C(=O)CCC(C)C)[C@@H]3OC(C)=O)OC[C@@H](O)[C@@H]2O)c(C)c1 (some centres undefined) ... 0.161
2. O=NC1c2cccc3cccc(c23)C1N=O (centres undefined) ... 75.7
3. COc1ccc(-c2ccc(/C=C/C(=O)NO)cc2)cc1 ... 56.3

* * *

test system: HT29 colon; assay: NCI tumour cell line growth inhibition, 48 h
endpoint_name: TGI

1) O=C(N/N=C(/c1nc2ccc(Cl)cc2[nH]c1=O)C(O)c1ccc(Cl)cc1Cl)c1ccncc1 (stereo not given) ... > 100 µM
2) CC(C)(CO)CNc1nc(N)nc(Cl)c1N ... > 100 µM
3) O=C(C1=C(C(=O)c2ccccc2)SC2(S1)C(C(=O)c1ccccc1)=C(C(=O)c1ccccc1)Sc1c2ssc1=O)c1ccccc1 ... > 100 µM
4) CN1/C(=C\C(I)C(I)C2=[N+](C)c3ccccc3C2(C)C)C(C)(C)c2ccccc21 (stereo not given) ... 11.4 µM
5) CC1=C(C(=O)OCCc2ccc([N+](=O)[O-])cc2)C(c2ccccc2[N+](=O)[O-])C(C(=O)OC(C)C)=C(C)N1 (stereo not given) ... > 100 µM

* * *

The following compounds are shown together with reported TGI values.
tested on: MALME-3M melanoma; assay: NCI tumour cell line growth inhibition, 48 h
endpoint_name: TGI

1) CC(C)CCC[C@@H](C)[C@H]1CC[C@H]2[C@@H]3CC=C4C[C@@H](OC(=O)c5cccc6c(=O)c7ccccc7[nH]c56)CC[C@]4(C)[C@H]3CC[C@]12C ... > 75 µM
2) CN1CCn2c(Br)ccc2C1=O ... > 100 µM
3) Nc1ncnc2c1c(C(F)(F)F)cn2[C@@H]1O[C@H](CO)[C@@H](O)[C@H]1O ... 2.51 µM
4) Nc1ccc(-c2nc3ccc4[nH]ncc4c3c3c2CCCC3)cc1F ... 6.98 µM
5) COc1ccc2cccc(C(=O)c3ccc(C)c4c3CCC4)c2c1 ... 72.8 µM
6) C#CCNC(Cc1cnc[nH]1)C(=O)O (stereo unspecified) ... > 100 µM
7) CN1/C(=C\C(I)C(I)C2=[N+](C)c3ccccc3C2(C)C)C(C)(C)c2ccccc21 (stereo unspecified) ... 14 µM
8) c1ccc(CCN2CCCCCC2)nc1 ... > 100 µM
9) Cc1ccc(S(=O)(=O)n2cncc2CO)cc1 ... > 100 µM
10) Cc1cc(Cc2c(F)c(F)c(Cc3cc(C)no3)c(F)c2F)on1 ... > 100 µM
11) O=C(CC(=O)N1N=C(c2ccccc2)C(N=Nc2ccc(C(=O)O)cc2)C1=O)Nc1ccc(F)cc1 (stereo unspecified) ... > 100 µM

* * *

The following compounds are shown together with reported TGI values.
test system: BT-549 breast; assay: NCI tumour cell line growth inhibition, 48 h
endpoint_name: TGI (µM)

1) C/C1=C\[C@H](C)C[C@H](C)OC(=O)C[C@H](c2ccc(O)cc2)NC(=O)[C@@H](Cc2c(Br)[nH]c3ccccc23)N(C)C(=O)[C@H](C)NC(=O)[C@@H](C)C1 ... 0.0669
2) COc1ccc(-c2nn(-c3cccc(Cl)c3)cc2C=C(C#N)C#N)cc1 ... 4.05
3) Cn1c(=O)c2c(-c3ccccc3)onc2n(C)c1=O ... 45.2
4) Cc1ccc2c(c1)C(=O)c1c-2n(CCCN)c(=O)c2cc([N+](=O)[O-])ccc12 ... 1.57
5) O=C1c2[nH]cc(CN3CCNCC3)c2C(=O)c2c1c(O)c1ccccc1c2O ... 20.3
6) Nc1ncnc2c1c(C(F)(F)F)cn2[C@@H]1O[C@H](CO)[C@@H](O)[C@H]1O ... 3.44
7) N#CC1=C(N)C(C#N)(C#N)C(c2ccc(F)cc2)C=C1C1CC1 (configuration not stated) ... 12.5
8) Cn1c2ccccc2c(=Nc2ccccc2)c2c3ccccc3[nH]c21 ... 7.13
9) NC(=O)c1cn(C2OC(CO)C(O)C2O)c2ncnc(N)c12 (configuration not stated) ... 0.0389
10) Cc1cc(C)c(S(=O)(=O)N(CCCCN)OCCCN)c(C)c1 ... 33.8
11) O=C1/C(=C/c2ccccc2)CCc2ccc(Cl)nc21 ... 32.1
12) C=C(CN1CCN(c2ccccc2OC)CC1)c1ccc(C(=O)Nc2ccccc2N)cc1 ... 26.9
13) O=C(O)/C=C(/CC(=O)O)C(=O)O ... 43.7
14) CCOC(=O)c1cc2c(OC(C)=O)ccc(OC(C)=O)c2s1 ... 4.97
15) O=C(NCc1cccnc1)/C(=C\c1ccc(Br)cc1)S(=O)(=O)c1ccccc1 ... 2.21
16) CC[C@]12C=CCN3CCC4(c5cc(N=Nc6ccccc6)c(OC)cc5N(C)[C@H]4[C@@](O)(C(=O)OC)[C@@H]1OC(C)=O)[C@@H]32 (some centres not stated) ... 35.6
17) C=C1CCC2C3(C)COC(c4ccc(NC(C)=O)cc4)OC3CCC2(C)C1C/C=C1/C(=O)OCC1O (configuration not stated) ... 9.35
18) CC(C)C[C@H](NC(=O)[C@H](CCc1ccccc1)NC(=O)CN1CCOCC1)C(=O)N[C@@H](Cc1ccccc1)C(=O)N[C@@H](CC(C)C)C(=O)[C@@]1(C)CO1 ... 0.0242

* * *

test system: HL-60(TB) leukemia; test: NCI tumour cell line growth inhibition, 48 h
Classify as follows. Reported TGI greater than or equal to 6 µM: true. Reported TGI below: false.

1. Cc1cnc[nH]c1=O ... true
2. S=c1nc(-c2ccccc2)oc(=NC2CCCCC2)n1C1CCCCC1 ... false
3. O=C1/C(=C/c2ccccc2)CCc2ccc(Cl)nc21 ... false
4. COc1ccccc1/C=C\c1cnnc2ccccc12 ... true
5. O=C(c1ccc2ccccc2c1)C1S(=O)(=O)OCCOS1(=O)=O ... true
6. COc1ccc(/C=C/c2c(C(=O)/C=C/c3ccc(Cl)cc3)c(C)nc3ccccc23)cc1 ... false
7. O=C1c2ccccc2C(=O)c2c(NCCCNCCO)ccc(NCCCNCCO)c21 ... true
8. CC#C[C@@]1(O)CCCC[C@@H]1O ... true
9. C/C(=C/CO[Si](C)(C)C(C)(C)C)C(=O)N(C)c1ccccc1I ... true
10. C#CCN1C(=O)/C(=c2\sc3n(c2=O)C2C(NN=3)N(CC)C(=O)N2CC)c2ccccc21 (stereo unspecified) ... false
11. O=C(NCc1cccnc1)/C(=C\c1ccc(Br)cc1)S(=O)(=O)c1ccccc1 ... false
